Biological target: T1, feline IL-5 (Kingfisher Biotech; RP1152F) (feline, UniProt O77515 20-134)
T1 construct: Bought recombinant protein; also called fIL-5; fIL5
T1 sequence (looked up): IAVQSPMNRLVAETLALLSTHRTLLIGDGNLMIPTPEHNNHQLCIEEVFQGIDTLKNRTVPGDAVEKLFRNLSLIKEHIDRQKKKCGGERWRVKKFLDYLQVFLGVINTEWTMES
Assay: ELISA, Fab culture supernatant on plate-coated feline IL-5, anti-feline Fab'2-HRP detection
Hi there, I'd appreciate the recorded fIL5 Fab (ELISA absorbance) for every entry that follows.
Report only the number, with the unit absorbance understood.

Query: Give the reported value of fIL5 Fab (ELISA absorbance) for this record: LxH3-D3 Fab (affinity matured MtxB) (Fab, V domains shown, Fab from the Stage B library on MtxB; the entries named are the parent, the changed regions are told under detail) VH: DVQLVESGGDLVKPGGSLRLTCVGSGFTFSNYAMSWVRQAPGEGLQWVATIGSGGHYTYHPDSVKGRFTISRDNAKNTLYLQMNSLQTEDTASYYCTRETDGYGPILDWGQGTLVTVSS VL: DIVMTQTPLSLSVTPGEPASISCRASQSISDYLYWYLQKPGQSPRLLFNVLSQRSSGVPDRFSGSGSGTDFTLRISRVEADDVGVYYCQQGLVFPYTFGPGTKLEIK
Response: 1.28

Query: Give the reported value of fIL5 Fab (ELISA absorbance) for this record: LxH3-D1 Fab (affinity matured MtxB) (Fab, V domains shown, Fab from the Stage B library on MtxB; the entries named are the parent, the changed regions are told under detail) VH: DVQLVESGGDLVKPGGSLRLTCVGSGFTFSNYAMSWVRQAPGEGLQWVATIGSGGHYTYHPDSVKGRFTISRDNAKNTLYLQMNSLQTEDTASYYCTRETDGYGPILDWGQGTLVTVSS VL: DIVMTQTPLSLSVTPGEPASISCRASQSISDYLYWYLQKPGQSPRRLIYFGSVRSSGVPDRFSGSGSGTDFTLRISRVEADDVGVYYCQQGLQFPYTFGPGTKLEIKR
Response: 1.01

Query: Give the reported value of fIL5 Fab (ELISA absorbance) for this record: LxH3-D9 Fab (affinity matured MtxB) (Fab, V domains shown, Fab from the Stage B library on MtxB; the entries named are the parent, the changed regions are told under detail) VH: DVQLVESGGDLVKPGGSLRLTCVGSGFTFSNYAMSWVRQAPGEGLQWVATIGSGGHYTYHPDSVKGRFTISRDNAKNTLYLQMNSLQTEDTASYYCTRETDGYGPILDWGQGTLVTVSS VL: DIVMTQTPLSLSVTPGEPASISCRASQSISDYLYWYLQKPGQSPRLIINYGSVLLSGVPDRFSGSGSGTDFTLRISRVEADDVGVYYCQQGLLFPYTFGPGTKLEIKR
Response: 1.13

Query: Give the reported value of fIL5 Fab (ELISA absorbance) for this record: LxH3-F12 Fab (affinity matured MtxB) (Fab, V domains shown, Fab from the Stage B library on MtxB; the entries named are the parent, the changed regions are told under detail) VH: DVQLVESGGDLVKPGGSLRLTCVGSGFTFSNYAMSWVRQAPGEGLQWVATIGSGGHYTYHPDSVKGRFTISRDNAKNTLYLQMNSLQTEDTASYYCTRETDGYGPLDLWGQGTLVTVSS VL: DIVMTQTPLSLSVTPGEPASISCRASQSISDYLYWYLQKPGQSPRLIFNPLSVRRSGVPDRFSGSGSGTDFTLRISRVEADDVGVYYCQQGYVFPYTFGPGTKLEIKR
Response: 0.513

Query: Give the reported value of fIL5 Fab (ELISA absorbance) for this record: LxH3-E8 Fab (affinity matured MtxB) (Fab, V domains shown, Fab from the Stage B library on MtxB; the entries named are the parent, the changed regions are told under detail) VH: DVQLVESGGDLVKPGGSLRLTCVGSGFTFSNYAMSWVRQAPGEGLQWVATIGSGGHYTYHPDSVKGRFTISRDNAKNTLYLQMNSLQTEDTASYYCTRETDGYGPILDWGQGTLVTVSS VL: DIVMTQTPLSLSVTPGEPASISCRASQSISDYLYWYLQKPGQSPRLIINQASSKLSGVPDRFSGSGSGTDFTLRISRVEADDVGVYYCQQGPLFPYTFGPGTKLEIKR
Response: 0.748

Query: Give the reported value of fIL5 Fab (ELISA absorbance) for this record: LxH3-G7 Fab (affinity matured MtxB) (Fab, V domains shown, Fab from the Stage B library on MtxB; the entries named are the parent, the changed regions are told under detail) VH: DVQLVESGGDLVKPGGSLRLTCVGSGFTFSNYAMSWVRQAPGEGLQWVATIGSGGHYTYHPDSVKGRFTISRDNAKNTLYLQMNSLQTEDTASYYCTRETDGYGPILDWGQGTLVTVSS VL: DIVMTQTPLSLSVTPGEPASISCRASQSISDYLYWYLQKPGQSPRLVFNHASPVPSGVPDRFSGSGSGTDFTLRISRVEADDVGVYYCQQGIRFPYTFGPGTKLEIKR
Response: 0.672

Query: Give the reported value of fIL5 Fab (ELISA absorbance) for this record: LxH3-F11 Fab (affinity matured MtxB) (Fab, V domains shown, Fab from the Stage B library on MtxB; the entries named are the parent, the changed regions are told under detail) VH: DVQLVESGGDLVKPGGSLRLTCVGSGFTFSNYAMSWVRQAPGEGLQWVATIGSGGHYTYHPDSVKGRFTISRDNAKNTLYLQMNSLQTEDTASYYCTRETDGYGPILDWGQGTLVTVSS VL: DIVMTQTPLSLSVTPGEPASISCRASQSISDYLYWYLQKPGQSPRRVFFHSSYRQSGVPDRFSGSGSGTDFTLRISRVEADDVGVYYCQQGMLFPFTFGPGTKLEIKR
Response: 0.782

Query: Give the reported value of fIL5 Fab (ELISA absorbance) for this record: LxH3-G10 Fab (affinity matured MtxB) (Fab, V domains shown, Fab from the Stage B library on MtxB; the entries named are the parent, the changed regions are told under detail) VH: DVQLVESGGDLVKPGGSLRLTCVGSGFTFSNYAMSWVRQAPGEGLQWVATIGSGGHYTYHPDSVKGRFTISRDNAKNTLYLQMNSLQTEDTASYYCTRETDGYGPILDWGQGTLVTVSS VL: DIVMTQTPLSLSVTPGEPASISCRASQSISDYLYWYLQKPGQSPRRIIFTGSQRNSGVPDRFSGSGSGTDFTLRISRVEADDVGVYYCQQGAFFPYTFGPGTKLEIKR
Response: 0.877

Query: Give the reported value of fIL5 Fab (ELISA absorbance) for this record: LxH3-B10 Fab (affinity matured MtxB) (Fab, V domains shown, Fab from the Stage B library on MtxB; the entries named are the parent, the changed regions are told under detail) VH: DVQLVESGGDLVKPGGSLRLTCVGSGFTFSNYAMSWVRQAPGEGLQWVATIGSGGHYTYHPDSVKGRFTISRDNAKNTLYLQMNSLQTEDTASYYCTRETDGYGPILDWGQGTLVTVSS VL: DIVMTQTPLSLSVTPGEPASISCRASQSISDYLYWYLQKPGQSPRRLIFTGSQRASGVPDRFSGSGSGTDFTLRISRVEADDVGVYYCQQGVRFPYTFGPGTKLEIKR
Response: 0.702

Query: Give the reported value of fIL5 Fab (ELISA absorbance) for this record: LxH3-A9 Fab (affinity matured MtxB) (Fab, V domains shown, Fab from the Stage B library on MtxB; the entries named are the parent, the changed regions are told under detail) VH: DVQLVESGGDLVKPGGSLRLTCVGSGFTFSNYAMSWVRQAPGEGLQWVATIGSGGHYTYHPDSVKGRFTISRDNAKNTLYLQMNSLQTEDTASYYCTRETDGYGPLDLWGQGTLVTVSS VL: DIVMTQTPLSLSVTPGEPASISCRASQSISDYLYWYLQKPGQSPRRIIFTGSQRNSGVPDRFSGSGSGTDFTLRISRVEADDVGVYYCQQGMVFPYTFGPGTKLEIKR
Response: 0.722
